We begin with a simple list: items and their reported koff.
- Target: AAV9 (adeno-associated virus serotype 9)
- Assay name: SPR, AAV on CM5 chip

{"columns": ["Binder", "koff / s⁻¹"],
 "data": [
  ["A4-C3 (bispecific antibody) VQLQESGGGLVQPGGSLRLSCAASGSIFSINLMGWYRQAPGKQRELVATITRGGNTNYAGSVKGRFTISRDNAKNTVYLQMNSLRPEDTAVYYCHVDEVRQSSWTTSNLWGQGTQVTVSSGGGGSGGGGSGGGGSVQLQESGGGLVQPGGSLRLSCAASGSIFSINLMGWYRQAPGKQRELVATITRGGNTNYAGSVKGRFTISRDNAKNTVYLQMNSLRPEDTAVYYCHVDEVRQSSWTTSNLWGQGTQVTVSSGGGGSGGGGSGGGGSVQLQESGGGLVQPGGSLRLSCAASGSNFRINTMGWYRQAPGKQRELVATVTRGGSTNYADSVKGRFTISRDNPKDTVYLQMNSLRPEDTAVYYCHVDEVRESSWTTSNLWGQGTQVTVSS", "9e-05"],
  ["A4-B2 (bispecific antibody) VQLQESGGGLVQAGGSLRLSCAASGSRFSINTMGWYRQAPGKQREFVATVTRGGNTNYAESVKGRFTISRDNAKNTVYLQMNSLRPEDTAVYYCHVDEVRDSSWTTSNIWGQGTQVTVSSGGGGSGGGGSGGGGSVQLQESGGGLVQAGGSLRLSCAASGSTFSINTMGWYRQAPGKQRELVATITRGGNTNYADSVKGRFTISRDNAKNTVYLQMNSLRPEDTAVYYCHVDEVRQSSWTTSNLWGQGTQVTVSS", 0.0008]
]}

Reference source: patent US20260193326A1
